Below, each entry is listed alongside its reported inhibition of growth at 10 µM.
Test system: NCI-H23
ASSAY PROCEDURE: Growth inhibition of human NCI-H23 cells at 10 uM after 48 hrs by SRB assay relative to control
Format: functional
PARTICULARS: NCI-H23, 48 h, read-out: GI
# output: numeric value plus its unit

Known inhibition of growth at 10 µM results, listed for orientation:
{"SMILES ENTRY": "CCSc1nnc(Cc2ccc(OC)cc2)n1-c1ccccc1", "inhibition of growth at 10 µM": "6.16%"}
{"SMILES ENTRY": "COc1ccc(Cc2nnc(SCC(=O)c3ccc(Cl)cc3)n2Cc2ccccc2)cc1", "inhibition of growth at 10 µM": "13.6%"}
{"SMILES ENTRY": "COc1ccc(Cc2nnc(SCC(=O)c3ccc(C)cc3)n2-c2ccccc2)cc1", "inhibition of growth at 10 µM": "7%"}
{"SMILES ENTRY": "COc1ccc(Cc2nnc(SCC(=O)Nc3ccc(C)cc3)n2-c2ccc(C)cc2)cc1", "inhibition of growth at 10 µM": "2%"}
{"SMILES ENTRY": "COc1ccc(Cc2nnc(SCC(=O)c3ccc(Cl)cc3)n2-c2ccccc2)cc1", "inhibition of growth at 10 µM": "8.1%"}

stdin: Provide inhibition of growth at 10 µM value for the following compound: COc1ccc(Cc2nnc(SCC(=O)Nc3ccc(C)cc3)n2-c2ccccc2)cc1
stdout: 5.6%

stdin: Provide inhibition of growth at 10 µM value for the following compound: COc1ccc(Cc2nnc3sc(SCC(=O)Nc4ccc(C)cc4)nn23)cc1
stdout: 3.12%

stdin: Provide inhibition of growth at 10 µM value for the following compound: COc1ccc(Cc2nnc(SCC(=O)Nc3ccc(Cl)cc3)n2Cc2ccccc2)cc1
stdout: 9%

stdin: Provide inhibition of growth at 10 µM value for the following compound: COc1ccc(Cc2nnc(SCC(=O)Nc3ccc(Cl)cc3)n2-c2ccccc2)cc1
stdout: 8.87%

stdin: Provide inhibition of growth at 10 µM value for the following compound: COc1ccc(Cc2nnc3sc(SCC(=O)c4ccc(Cl)cc4)nn23)cc1
stdout: 10.7%

----------
Consider the following IC50 values measured on M-phase inducer phosphatase 2 (Homo sapiens, UniProt P30305).
Sequence (P30305 whole entry): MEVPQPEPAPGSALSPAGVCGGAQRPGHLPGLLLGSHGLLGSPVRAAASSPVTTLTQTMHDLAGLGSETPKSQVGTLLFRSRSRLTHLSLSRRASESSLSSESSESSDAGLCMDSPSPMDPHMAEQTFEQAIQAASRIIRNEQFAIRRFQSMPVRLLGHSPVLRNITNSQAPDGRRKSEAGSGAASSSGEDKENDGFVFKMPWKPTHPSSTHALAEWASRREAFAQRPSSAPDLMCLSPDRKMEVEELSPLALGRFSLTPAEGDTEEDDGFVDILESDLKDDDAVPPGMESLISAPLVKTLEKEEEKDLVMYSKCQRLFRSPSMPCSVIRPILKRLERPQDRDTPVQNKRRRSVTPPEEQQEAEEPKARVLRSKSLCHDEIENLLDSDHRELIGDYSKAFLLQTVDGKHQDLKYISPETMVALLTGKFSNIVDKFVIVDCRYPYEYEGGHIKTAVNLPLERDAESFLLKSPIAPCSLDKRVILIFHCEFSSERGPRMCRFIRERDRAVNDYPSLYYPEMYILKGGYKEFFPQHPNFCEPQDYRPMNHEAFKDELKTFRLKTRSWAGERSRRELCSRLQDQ
Give your result in µM as a bare value.

{"SMILES ENTRY": "COc1ccc(Cc2nnc(SCC(=O)c3ccc(Cl)cc3)n2Cc2ccccc2)cc1", "UNIT INFO": "µM", "IC50": 6.7}

stdin: Provide IC50 value for the following compound: COc1ccc(Cc2nnc(SCC(=O)c3ccc(Cl)cc3)n2-c2ccccc2)cc1
stdout: 20.1

stdin: Provide IC50 value for the following compound: COc1ccc(Cc2nnc(SCC(=O)Nc3ccc(Cl)cc3)n2Cc2ccccc2)cc1
stdout: 8.4

stdin: Provide IC50 value for the following compound: COc1ccc(Cc2nnc(SCC(=O)Nc3ccc(Cl)cc3)n2-c2ccccc2)cc1
stdout: 22.5

stdin: Provide IC50 value for the following compound: COc1ccc(Cc2nnc(SCC(=O)c3ccc(Cl)cc3)n2-c2ccc(C)cc2)cc1
stdout: 17.3

----------
Below, each entry is listed alongside its reported inhibition of growth at 10 µM.
System: SR
ASSAY PROCEDURE: Growth inhibition of human SR cells at 10 uM after 48 hrs by SRB assay relative to control
Type: functional
PARTICULARS: read-out: GI
Give your result in % as a bare value.

{"SMILES ENTRY": "CCSc1nnc(Cc2ccc(OC)cc2)n1-c1ccccc1", "ASSAYED TARGET": "SR", "inhibition of growth at 10 µM [%]": 3.31}

stdin: Provide inhibition of growth at 10 µM value for the following compound: COc1ccc(Cc2nnc3sc(SCC(=O)c4ccc(Cl)cc4)nn23)cc1
stdout: 13.2

stdin: Provide inhibition of growth at 10 µM value for the following compound: COc1ccc(Cc2nnc(SCC(=O)Nc3ccc(Cl)cc3)n2-c2ccccc2)cc1
stdout: 31.2

stdin: Provide inhibition of growth at 10 µM value for the following compound: COc1ccc(Cc2nnc(SCC(=O)Nc3ccc(C)cc3)n2-c2ccc(C)cc2)cc1
stdout: 12.8

stdin: Provide inhibition of growth at 10 µM value for the following compound: COc1ccc(Cc2nnc3sc(SCC(=O)Nc4ccc(C)cc4)nn23)cc1
stdout: 7.23

stdin: Provide inhibition of growth at 10 µM value for the following compound: COc1ccc(Cc2nnc3sc(SCc4ccccc4)nn23)cc1
stdout: 12.9
